Values were extracted from patent US7700786B2.

I'd appreciate it if you could supply Herbicidal activity Dc values for the items below.
Tested on: Digitaria ciliaris
Experiment: Herbicidal efficacy test by soil treatment before germination under upland field condition
Type: in vivo
Details: dose 1 kg/ha; 21st day after treatment; ratings of 1 to 5
Excerpt: A vat having an area of 5×10 cm^2 and a depth of 5 cm was filled with upland field soil, and seeds of Chenopodium album, Echinochloa crus-galli, Amaranthus viridis, Digitaria ciliaris and sweet corn (Zea mays) were sown thereon and covered with soil by a depth of 0.5 cm.
Answers are plain numbers.

As a guide, the following entries are already answered.
CCNC(=O)n1nc(Oc2c(Cl)cc(C(F)(F)F)cc2Cl)c(Cl)c1C: 5
CNC(=O)n1nc(Oc2c(Cl)cc(C(F)(F)F)cc2Cl)c(Cl)c1C: 5
Cc1cc(Oc2c(Cl)cc(C(F)(F)F)cc2Cl)nn1C(=O)NCC1CCCO1 (stereo not drawn): 4
CCNC(=O)n1nc(Oc2c(Cl)cc(C(F)(F)F)cc2Cl)cc1C: 5
CCCNC(=O)n1nc(Oc2c(Cl)cc(C(F)(F)F)cc2Cl)cc1C: 5

Need Herbicidal activity Dc for each of these molecules.
1. CCNC(=S)n1nc(Oc2c(Cl)cc(C(F)(F)F)cc2Cl)cc1C
2. Cc1cc(Oc2c(Cl)cc(C(F)(F)F)cc2Cl)nn1C(N)=O
3. CCNC(=O)n1nc(Oc2c(Cl)cc(C(F)(F)F)cc2Cl)cc1CC
4. CNC(=O)n1nc(Oc2c(Cl)cc(C(F)(F)F)cc2Cl)cc1C

Result block:
1: 5; 2: 4.5; 3: 5; 4: 5
